Target sequence: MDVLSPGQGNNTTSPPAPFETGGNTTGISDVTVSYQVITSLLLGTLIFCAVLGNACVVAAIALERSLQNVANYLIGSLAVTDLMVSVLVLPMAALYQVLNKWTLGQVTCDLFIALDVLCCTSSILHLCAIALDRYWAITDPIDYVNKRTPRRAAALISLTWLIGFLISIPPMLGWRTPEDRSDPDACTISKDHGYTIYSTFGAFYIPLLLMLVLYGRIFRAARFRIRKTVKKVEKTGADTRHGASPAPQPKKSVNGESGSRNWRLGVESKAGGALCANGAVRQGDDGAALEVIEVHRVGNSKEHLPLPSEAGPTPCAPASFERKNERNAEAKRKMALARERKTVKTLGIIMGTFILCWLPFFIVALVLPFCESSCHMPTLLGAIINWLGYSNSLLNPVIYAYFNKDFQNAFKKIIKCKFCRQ
pIC50: −log10 of the molar value.
result-type: pIC50

Entry under test: CCN(CCCCc1c[nH]c2ccc(F)cc12)C1COc2c(F)ccc(C(N)=O)c2C1 (racemic) . Its pIC50 was < 6.00

----------
Sodium-dependent serotonin transporter (Homo sapiens): recorded pIC50 for assorted compounds
Sequence (P31645 whole entry): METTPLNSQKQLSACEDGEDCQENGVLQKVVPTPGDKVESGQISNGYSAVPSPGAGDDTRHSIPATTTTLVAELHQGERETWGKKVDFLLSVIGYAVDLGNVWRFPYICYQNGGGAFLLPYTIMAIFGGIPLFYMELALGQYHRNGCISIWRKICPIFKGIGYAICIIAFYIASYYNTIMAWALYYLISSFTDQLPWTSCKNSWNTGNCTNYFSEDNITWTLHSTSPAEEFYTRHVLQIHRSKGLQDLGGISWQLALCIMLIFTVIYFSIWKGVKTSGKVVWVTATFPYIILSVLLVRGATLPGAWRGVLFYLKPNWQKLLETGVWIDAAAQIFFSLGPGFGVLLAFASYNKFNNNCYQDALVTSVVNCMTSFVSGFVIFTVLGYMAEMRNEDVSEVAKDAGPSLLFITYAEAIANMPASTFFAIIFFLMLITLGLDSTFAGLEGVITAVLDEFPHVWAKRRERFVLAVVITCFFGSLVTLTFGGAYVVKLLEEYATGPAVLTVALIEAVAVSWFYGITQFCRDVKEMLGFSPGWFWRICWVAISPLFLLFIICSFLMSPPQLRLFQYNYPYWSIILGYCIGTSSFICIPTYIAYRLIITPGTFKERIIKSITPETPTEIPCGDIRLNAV
// pIC50 is dimensionless: -log10 of concentration (M)

CN(CCCc1c[nH]c2ccc(F)cc12)[C@H]1COc2c(F)ccc(C(N)=O)c2C1	6.94
CCCN(CCCc1c[nH]c2ccc(F)cc12)[C@H]1COc2c(F)ccc(C(N)=O)c2C1	6.74
CCN(CCCCc1c[nH]c2ccc(F)cc12)C1COc2c(F)ccc(C(N)=O)c2C1 (racemic)	7.62

// switching to the query compound
Tested system Sodium-dependent serotonin transporter (Homo sapiens); pIC50 recorded for CCCN(CCCc1c[nH]c2ccc(F)cc12)C1COc2cccc(OC)c2C1 (racemic) was 6.41

----------
- tgt: Adrenergic receptor alpha-1 (Rattus norvegicus, UniProt P15823+P23944+P43140)
- assay-procedure: Displacement of [3H]prazosin from alpha-1 adrenergic receptor in Sprague-Dawley rat cortical membranes
- Assay type: cell membranes, Membrane
Ki overview
Numbers only; they are read as nM.

CCCN(CCCc1c[nH]c2ccc(F)cc12)[C@H]1COc2c(F)ccc(C(N)=O)c2C1	1150
CCCN(CCCCc1c[nH]c2ccc(F)cc12)C1COc2c(F)ccc(C(N)=O)c2C1 (racemic)	494

# COc1cccc2c1CC(N(C)CCCc1c[nH]c3ccc(F)cc13)CO2 (racemic) with Adrenergic receptor alpha-1 (Rattus norvegicus, UniProt P15823+P23944+P43140): Ki is 610

Ki value, target or system Adrenergic receptor alpha-1 (Rattus norvegicus, UniProt P15823+P23944+P43140), for CCCN(CCCc1c[nH]c2ccc(F)cc12)C1COc2cccc(OC)c2C1 (racemic) : 820

// molecule CCCN(CCc1c[nH]c2ccc(F)cc12)C1COc2c(F)ccc(C(N)=O)c2C1 (racemic) , assay Adrenergic receptor alpha-1 (Rattus norvegicus, UniProt P15823+P23944+P43140), Ki value: 484

Simply: NC(=O)c1ccc(F)c2c1CC(N(CCCCc1c[nH]c3ccc(F)cc13)CC1CC1)CO2 (racemic) , Adrenergic receptor alpha-1 (Rattus norvegicus, UniProt P15823+P23944+P43140), Ki = 506

----------
Examples of compounds with documented Emax follow.
- tgt: 5-hydroxytryptamine receptor 1A (Homo sapiens) (UniProt P08908)
- assay-procedure: Agonist activity at human 5HT1A receptor expressed in CHO cells by inhibition of […] forskolin-stimulated cAMP production relative to 5-HT
- Format: functional, cell-based
Expressed in %, but write only the number.

CCCN(CCCc1c[nH]c2ccc(F)cc12)[C@@H]1COc2c(F)ccc(C(N)=O)c2C1	97
CCCN(CCCc1c[nH]c2ccc(F)cc12)C1COc2cccc(OC)c2C1 (racemic)	80
COc1cccc2c1CC(N(CCCc1c[nH]c3ccc(F)cc13)CC1CC1)CO2 (racemic)	91
CCCN(CCCc1c[nH]c2ccc(F)cc12)[C@H]1COc2c(F)ccc(C(N)=O)c2C1	78
COc1cccc2c1CC(N(C)CCCc1c[nH]c3ccc(F)cc13)CO2 (racemic)	91
NC(=O)c1ccc(F)c2c1C[C@H](N(CCCc1c[nH]c3ccc(F)cc13)CC1CC1)CO2	69

Emax in this record for CCN(CCCc1c[nH]c2ccc(F)cc12)C1COc2cccc(OC)c2C1 (racemic) : 96

For reference, reported Emax for CCCN(CCCc1c[nH]c2ccc(F)cc12)C1COc2c(F)ccc(C(N)=O)c2C1 (racemic) stands at 84

Documented Emax of "NC(=O)c1ccc(F)c2c1C[C@@H](NCCCc1c[nH]c3ccc(F)cc13)CO2" : 85

So, COc1cccc2c1CC(N(CCCc1c[nH]c3ccc(F)cc13)C1CCC1)CO2 (racemic) ? Its Emax was 37

Per the record, "CCN(CCCc1c[nH]c2ccc(F)cc12)[C@@H]1COc2c(F)ccc(C(N)=O)c2C1" has Emax of 91
